Values were extracted from patent US20230374038A1.

# Tested On: CFTR (Homo sapiens, UniProt P13569, DEL508-508)
# Construct: endogenous in cells; host or cells: primary human bronchial epithelial cells, F508del/MF genotype
# Sequence (P13569 with tags, fused parts or gaps DEL508-508): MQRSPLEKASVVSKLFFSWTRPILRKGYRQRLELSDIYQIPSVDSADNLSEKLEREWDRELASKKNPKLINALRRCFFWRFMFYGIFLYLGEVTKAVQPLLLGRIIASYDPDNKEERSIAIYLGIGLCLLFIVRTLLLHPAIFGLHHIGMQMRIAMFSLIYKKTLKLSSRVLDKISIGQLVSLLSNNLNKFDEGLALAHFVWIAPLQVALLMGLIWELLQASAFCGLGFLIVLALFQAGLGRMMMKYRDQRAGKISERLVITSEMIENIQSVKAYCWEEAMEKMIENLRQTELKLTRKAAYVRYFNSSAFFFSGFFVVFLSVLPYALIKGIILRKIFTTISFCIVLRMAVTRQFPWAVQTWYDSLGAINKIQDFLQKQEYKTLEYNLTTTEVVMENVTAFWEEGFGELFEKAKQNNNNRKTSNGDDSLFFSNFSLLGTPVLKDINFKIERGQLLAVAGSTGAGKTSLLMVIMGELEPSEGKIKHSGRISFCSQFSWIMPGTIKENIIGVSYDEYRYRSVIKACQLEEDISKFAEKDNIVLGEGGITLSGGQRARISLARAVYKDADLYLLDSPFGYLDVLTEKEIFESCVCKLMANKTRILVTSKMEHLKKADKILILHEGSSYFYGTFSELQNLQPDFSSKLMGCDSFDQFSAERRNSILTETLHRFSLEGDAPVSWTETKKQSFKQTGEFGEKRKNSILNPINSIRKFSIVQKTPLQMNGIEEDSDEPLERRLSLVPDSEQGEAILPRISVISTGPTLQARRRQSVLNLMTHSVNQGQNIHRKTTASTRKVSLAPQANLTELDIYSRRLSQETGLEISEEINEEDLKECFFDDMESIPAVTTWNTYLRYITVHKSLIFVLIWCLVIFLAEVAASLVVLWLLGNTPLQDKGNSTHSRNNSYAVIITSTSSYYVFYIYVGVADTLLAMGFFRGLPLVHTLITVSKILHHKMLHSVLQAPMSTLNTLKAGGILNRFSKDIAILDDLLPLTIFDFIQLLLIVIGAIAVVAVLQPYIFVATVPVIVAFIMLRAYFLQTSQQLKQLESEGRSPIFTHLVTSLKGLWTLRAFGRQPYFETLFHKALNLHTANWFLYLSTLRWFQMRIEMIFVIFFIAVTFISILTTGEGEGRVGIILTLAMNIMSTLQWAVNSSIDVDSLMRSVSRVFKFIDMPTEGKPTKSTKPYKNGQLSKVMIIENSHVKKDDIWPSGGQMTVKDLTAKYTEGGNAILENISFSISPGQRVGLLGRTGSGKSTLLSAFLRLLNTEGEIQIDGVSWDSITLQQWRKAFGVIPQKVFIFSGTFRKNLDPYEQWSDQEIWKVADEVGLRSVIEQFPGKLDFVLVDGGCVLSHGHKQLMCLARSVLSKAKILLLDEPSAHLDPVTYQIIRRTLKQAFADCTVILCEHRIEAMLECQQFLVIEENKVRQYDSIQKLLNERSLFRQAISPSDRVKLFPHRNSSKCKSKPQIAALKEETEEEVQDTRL
# Procedure Details: HBE Assay: Ussing chamber assay of CFTR-mediated short-circuit currents in F508del/MF-HBE cells with 1 μM Ivacaftor
# Type: cell-based
# Cond: with 1 μM Ivacaftor, 18-24 hours, 20% human serum
Measured Attribute: HBE Max Activity

| Molecule | Measured Attribute | Endpoint Result |
| --- | --- | --- |
| Cc1cccc(CC2CCCCC2)c1-c1nc2nc(c1C)OC[C@@H](CC(C)(C)C)N(Cc1ncccc1N1CCOCC1)C(=O)c1cccc(c1)S(=O)(=O)N2 (atropisomer, axis not shown) [Compound 309] | HBE Max Activity | +++ (+++ is >600%) |
| Cc1cccc(C2CC2)c1-c1nc2nc(c1C)OC[C@@H](CC(C)(C)C)N(Cc1cnc(C3CCOCC3)cn1)C(=O)c1cccc(c1)S(=O)(=O)N2 (atropisomer, axis not shown) | HBE Max Activity | +++ (+++ is >600%) |
| Cc1cccc(CC2CCCCC2)c1-c1nc2nc(c1C)OC[C@@H](CC(C)(C)C)N(Cc1cccc(N(C)C(C)C)n1)C(=O)c1cccc(c1)S(=O)(=O)N2 (atropisomer, axis not shown) | HBE Max Activity | +++ (+++ is >600%) |
| Cc1cccc(C)c1-c1nc2nc(c1C)OC[C@@H](CC(C)(C)C)N(Cc1ncc(N3CCC(C)(C)C3)cn1)C(=O)c1cccc(c1)S(=O)(=O)N2 | HBE Max Activity | +++ (+++ is >600%) |
| Cc1cccc(CC(C)C)c1-c1nc2nc(c1C)OC[C@@H](CC(C)(C)C)N(Cc1ncc(N(C)C)cn1)C(=O)c1cccc(c1)S(=O)(=O)N2 (atropisomer, axis not shown) | HBE Max Activity | +++ (+++ is >600%) |
| Cc1cccc(CC2CCCCC2)c1-c1nc2nc(c1C)OC[C@@H](CC(C)(C)C)N(Cc1ncc(C3CCCCC3)cn1)C(=O)c1cccc(c1)S(=O)(=O)N2 (atropisomer, axis not shown) | HBE Max Activity | +++ (+++ is >600%) |
| Cc1cccc(CC(C)C)c1-c1nc2nc(c1C)OC[C@@H](CC(C)C)N(Cc1cnc(C3CCOCC3)cn1)C(=O)c1cccc(c1)S(=O)(=O)N2 (atropisomer, axis not shown) | HBE Max Activity | +++ (+++ is >600%) |
| Cc1cccc(CC2CCCCC2)c1-c1nc2nc(c1C)OC[C@@H](CC(C)(C)C)N(Cc1ccc(OC(C)C)cn1)C(=O)c1cccc(c1)S(=O)(=O)N2 (atropisomer, axis not shown) | HBE Max Activity | +++ (+++ is >600%) |
| Cc1cccc(CC(C)C)c1-c1nc2nc(c1C(F)(F)F)OC[C@@H](CC(C)(C)C)N(Cc1ncc(N3CCOCC3)cn1)C(=O)c1cccc(c1)S(=O)(=O)N2 (single isomer, unassigned) | HBE Max Activity | +++ (+++ is >600%) |
| Cc1cccc(C)c1-c1nc2nc(c1C)OC[C@@H](CC(C)C)N(Cc1ncc(OC(C)C)cn1)C(=O)c1cccc(c1)S(=O)(=O)N2 | HBE Max Activity | +++ (+++ is >600%) |
| Cc1cccc(CC2CCCCC2)c1-c1nc2nc(c1C)OC[C@@H](CC(C)(C)C)N(Cc1ncc(N(C)CC(C)(C)C)cn1)C(=O)c1cccc(c1)S(=O)(=O)N2 (atropisomer, axis not shown) | HBE Max Activity | +++ (+++ is >600%) |
| Cc1c2nc(nc1-c1ccccc1C(C)C)NS(=O)(=O)c1cccc(c1)C(=O)N(Cc1ccc(N3CCOCC3)cn1)[C@H](CC(C)(C)C)CO2 | HBE Max Activity | +++ (+++ is >600%) |
| Cc1cccc(CC(C)C)c1-c1nc2nc(c1C)OC[C@@H](C)N(Cc1ncc(N3CCC(C)(C)C3)cn1)C(=O)c1cccc(c1)S(=O)(=O)N2 (atropisomer, axis not shown) | HBE Max Activity | +++ (+++ is >600%) |
| Cc1cccc(CC2CCCCC2)c1-c1nc2nc(c1C)OC[C@@H](CC(C)(C)C)N(Cc1nccc(C(C)C)n1)C(=O)c1cccc(c1)S(=O)(=O)N2 | HBE Max Activity | +++ (+++ is >600%) |
| Cc1cccc(CC(C)C)c1-c1nc2nc(c1C)OC[C@@H](CC(C)C)N(Cc1ncc(N3CCC(C)(C)C3)cn1)C(=O)c1cccc(c1)S(=O)(=O)N2 (atropisomer, axis not shown) | HBE Max Activity | +++ (+++ is >600%) |
| Cc1cccc(C)c1-c1nc2nc(c1C)OC[C@@H](C(C)C)N(Cc1cncc(N(C)CC(C)(C)C)n1)C(=O)c1cccc(c1)S(=O)(=O)N2 | HBE Max Activity | +++ (+++ is >600%) |
| Cc1cccc(CC2CCCCC2)c1-c1nc2nc(c1C)OC[C@@H](CC(C)(C)C)N(Cc1ncc(OC(C)C)cn1)C(=O)c1cccc(c1)S(=O)(=O)N2 | HBE Max Activity | +++ (+++ is >600%) |
| Cc1cccc(CC(C)C)c1-c1nc2nc(c1C)OC[C@@H](CC(C)(C)C)N(Cc1cncc(N(C)C(C)C)n1)C(=O)c1cccc(c1)S(=O)(=O)N2 (atropisomer, axis not shown) | HBE Max Activity | +++ (+++ is >600%) |
